The reader will find reported inhibition of growth at 20 µg/mL values listed item by item below.
# System: A549
# Protocol: Cytotoxicity against human A549 cells assessed as growth inhibition at 20 ug/ml after 72 hrs by [3H]-thymidine uptake assay
# Type: functional
# Conditions Used: read-out: GI
Square brackets hold non-standard residues; d marks the D form. Peptide text beside a SMILES is read from it. Phe(4-Cl) = N[C@@H](Cc1ccc(Cl)cc1)C(=O)O; Phe(4-F) = N[C@@H](Cc1ccc(F)cc1)C(=O)O

Compound	inhibition of growth at 20 µg/mL (%)
COc1ccc(C[C@@H]2NC(=O)[C@H](CC(C)C)NC(=O)[C@H](C(C)C)NC(=O)[C@H](CC(C)C)NC(=O)[C@H](CC(C)C)NC2=O)cc1 (cyclo(LLVLY(Me)))	98.2
CC(C)C[C@@H]1NC(=O)[C@H](Cc2ccc(F)cc2)NC(=O)[C@H](CC(C)C)NC(=O)[C@H](C(C)C)NC(=O)[C@H](CC(C)C)NC1=O (cyclo(LLVL[Phe(4-F)]))	30.8
CC(C)C[C@@H]1NC(=O)[C@H](Cc2ccccc2)NC(=O)[C@H](CC(C)C)NC(=O)[C@H](C(C)C)NC(=O)[C@H](CC(C)C)NC1=O (cyclo(FLLVL))	26.6
CC(C)C[C@@H]1NC(=O)[C@H](Cc2ccc(Cl)cc2)NC(=O)[C@H](CC(C)C)NC(=O)[C@H](C(C)C)NC(=O)[C@H](CC(C)C)NC1=O (cyclo(LLVL[Phe(4-Cl)]))	5.2

Value source: ChEMBL document CHEMBL3132789
